- Tested on: Pseudomonas aeruginosa PAO1
- measurement_setup: Supplementary Table 3; medium not stated; at least three biological replicates
parameter: Antibiogram, antibiotic concentration (MIC) (µg/mL)

Illustrative cases are given below, each with its answer.
[
  {
    "molecule": "NC[C@H]1O[C@H](O[C@H]2[C@H](O)[C@@H](O[C@H]3O[C@H](CO)[C@@H](O)[C@H](N)[C@H]3O)[C@H](N)C[C@@H]2N)[C@H](N)C[C@@H]1O",
    "reported_result": 2
  },
  {
    "molecule": "CC(C)(O/N=C(\\C(=O)N[C@@H]1C(=O)N2C(C(=O)[O-])=C(C[n+]3ccccc3)CS[C@H]12)c1csc(N)n1)C(=O)O",
    "reported_result": 1
  }
]

1: O=C(O)c1cn(C2CC2)c2cc(N3CCNCC3)c(F)cc2c1=O
2: CNC(C)C1CCC(N)C(OC2C(N)CC(N)C(OC3OCC(C)(O)C(NC)C3O)C2O)O1 (stereo not shown)
Hi! Which is lower in terms of Antibiogram, antibiotic concentration (MIC), the first one 1 or the second one 2 ? Identify your selection by its label. 1
(1: 0.5 µg/mL, 2: 4 µg/mL)

----------
- System: Acinetobacter baumannii AYE
- measurement_setup: Supplementary Table 3; medium not stated; at least three biological replicates
- Method: The antibacterial activity of the peptides was assessed through a modified twofold broth microdilution assay with modal MICs generated from at least three biological replicate experiments[20],[25]. […] Plates were incubated, static at 37 C, for 20 h and the OD600 was determined using a Clariostar plate reader (BMG Labtech). […] Synergy was measured using standard microdilution checkerboard assays under the same conditions as the MICs[54]. […]
parameter: Antibiogram, antibiotic concentration (MIC) (µg/mL)

I: NC[C@H]1O[C@H](O[C@H]2[C@H](O)[C@@H](O[C@H]3O[C@H](CO)[C@@H](O)[C@H](N)[C@H]3O)[C@H](N)C[C@@H]2N)[C@H](N)C[C@@H]1O [Tobramycin]
II: O=C(O)c1cn(C2CC2)c2cc(N3CCNCC3)c(F)cc2c1=O [Ciprofloxacin]
I need your help: which of the pair I , II has higher Antibiogram, antibiotic concentration (MIC)? Identify your selection by its label. II

----------
- System: EMR Staphylococcus aureus-15 NCTC 13616
- measurement_setup: Supplementary Table 3; medium not stated; at least three biological replicates
parameter: Antibiogram, antibiotic concentration (MIC) (µg/mL)

a: CC(C)(O/N=C(\C(=O)N[C@@H]1C(=O)N2C(C(=O)[O-])=C(C[n+]3ccccc3)CS[C@H]12)c1csc(N)n1)C(=O)O
b: NC[C@H]1O[C@H](O[C@H]2[C@H](O)[C@@H](O[C@H]3O[C@H](CO)[C@@H](O)[C@H](N)[C@H]3O)[C@H](N)C[C@@H]2N)[C@H](N)C[C@@H]1O
c: CNC(C)C1CCC(N)C(OC2C(N)CC(N)C(OC3OCC(C)(O)C(NC)C3O)C2O)O1 (stereo not shown)
d: O=C(O)c1cn(C2CC2)c2cc(N3CCNCC3)c(F)cc2c1=O
Sort the entries above by Antibiogram, antibiotic concentration (MIC), smallest first. # the answer lists labels in the order requested c, b, d, a

----------
- Test system: Klebsiella pneumoniae M6
- measurement_setup: Supplementary Table 3; medium not stated; at least three biological replicates
parameter: Antibiogram, antibiotic concentration (MIC) (µg/mL)

a: NC[C@H]1O[C@H](O[C@H]2[C@H](O)[C@@H](O[C@H]3O[C@H](CO)[C@@H](O)[C@H](N)[C@H]3O)[C@H](N)C[C@@H]2N)[C@H](N)C[C@@H]1O
b: CNC(C)C1CCC(N)C(OC2C(N)CC(N)C(OC3OCC(C)(O)C(NC)C3O)C2O)O1 (stereo not shown)
I need your help: which of the pair a , b has higher Antibiogram, antibiotic concentration (MIC)? Identify your selection by its label. a

The reported numbers originate from paper PMC7699649.
